- Species: Homo sapiens
- assay remarks: Selectivity index, ratio of Ki for binding affinity to recombinant human Matriptase using Boc-QAR-AMC as substrate assessed as inhibition constant by fluorescence based analysis to Ki for binding affinity to recombinant human TMPRSS6 using Boc-QAR-AMC as substrate assessed as inhibition constant by fluorescence based analysis
# Ratio Ki per record follows
value type: Ratio Ki

* N=C(N)NCCC[C@H](NC(=O)[C@H](Cc1cccc2ccccc12)NC(=O)[C@H](Cc1cscn1)NC(=O)CCc1ccccc1)C(=O)c1nc2ccccc2s1 | 12
* N=C(N)NCCC[C@H](NC(=O)[C@@H](NC(=O)[C@H](Cc1cscn1)NC(=O)CCc1ccccc1)C1CCCCC1)C(=O)c1nc2ccccc2s1 | 29
* CC(C)[C@H](NC(=O)[C@H](Cc1cscn1)NC(=O)CCc1ccccc1)C(=O)N[C@@H](CCCNC(=N)N)C(=O)c1nc2ccccc2s1 | 7.2

====

- experimental target: Suppressor of tumorigenicity 14 protein (Homo sapiens, UniProt Q9Y5Y6)
- Sequence (Q9Y5Y6 whole entry): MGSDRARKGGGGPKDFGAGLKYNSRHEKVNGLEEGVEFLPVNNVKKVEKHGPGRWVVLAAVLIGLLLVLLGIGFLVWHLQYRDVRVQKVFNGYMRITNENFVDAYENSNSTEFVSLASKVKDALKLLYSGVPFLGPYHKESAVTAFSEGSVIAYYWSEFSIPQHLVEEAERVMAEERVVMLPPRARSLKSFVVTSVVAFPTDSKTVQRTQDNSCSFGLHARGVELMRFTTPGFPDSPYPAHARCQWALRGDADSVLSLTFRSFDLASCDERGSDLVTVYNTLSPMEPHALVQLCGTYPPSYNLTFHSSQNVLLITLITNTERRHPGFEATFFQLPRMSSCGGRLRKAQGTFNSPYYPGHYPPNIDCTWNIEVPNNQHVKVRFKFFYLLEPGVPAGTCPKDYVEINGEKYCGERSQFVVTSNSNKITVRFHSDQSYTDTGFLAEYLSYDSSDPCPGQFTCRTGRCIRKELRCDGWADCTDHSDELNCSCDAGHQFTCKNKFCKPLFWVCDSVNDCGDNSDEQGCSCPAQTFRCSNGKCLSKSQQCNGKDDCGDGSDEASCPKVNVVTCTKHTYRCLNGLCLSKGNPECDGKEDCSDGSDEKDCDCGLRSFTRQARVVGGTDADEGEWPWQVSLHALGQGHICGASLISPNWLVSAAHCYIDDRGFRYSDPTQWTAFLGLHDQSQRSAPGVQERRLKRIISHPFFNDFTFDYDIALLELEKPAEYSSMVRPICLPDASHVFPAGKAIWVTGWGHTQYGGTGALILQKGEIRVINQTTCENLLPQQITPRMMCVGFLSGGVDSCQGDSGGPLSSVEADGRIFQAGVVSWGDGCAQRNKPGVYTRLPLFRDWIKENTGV
- assay remarks: Inhibition of human Matriptase transfected in HEK293SL cells using Boc-QAR-AMC as substrate measured for 24 hrs
Some compounds, each annotated with its measured IC50.
value type: IC50 (nM)

- N=C(N)NCCC[C@H](NC(=O)[C@@H](NC(=O)[C@H](CCc1ccccc1)NC(=O)CCc1ccccc1)C1CCCCC1)C(=O)c1nc2ccccc2s1: 6070
- CC(C)[C@H](NC(=O)[C@H](Cc1cscn1)NC(=O)CCc1ccccc1)C(=O)N[C@@H](CCCNC(=N)N)C(=O)c1nc2ccccc2s1: 18.1
- N=C(N)NCCC[C@H](NC(=O)[C@@H](NC(=O)[C@H](Cc1cscn1)NC(=O)CCc1ccccc1)C1CCCCC1)C(=O)c1nc2ccccc2s1: 352

====

- experimental target: Suppressor of tumorigenicity 14 protein (Homo sapiens, UniProt Q9Y5Y6)
- assay remarks: Binding affinity to recombinant human Matriptase using Boc-QAR-AMC as substrate assessed as inhibition constant by fluorescence based analysis
pKi: −log10 of the molar value.
Each record here notes measured pKi.
value type: pKi

• N=C(N)NCCC[C@H](NC(=O)[C@H](CCc1ccccc1)NC(=O)[C@H](Cc1cscn1)NC(=O)CCc1ccccc1)C(=O)c1nc2ccccc2s1 = 8.48
• N=C(N)NCCC[C@H](NC(=O)[C@H](CC1CCCCC1)NC(=O)[C@H](Cc1cscn1)NC(=O)CCc1ccccc1)C(=O)c1nc2ccccc2s1 = 8.04
• CC[C@@H](C)[C@H](NC(=O)[C@H](Cc1cscn1)NC(=O)CCc1ccccc1)C(=O)N[C@@H](CCCNC(=N)N)C(=O)c1nc2ccccc2s1 = 8.06

====

- experimental target: Suppressor of tumorigenicity 14 protein (Homo sapiens, UniProt Q9Y5Y6)
- assay remarks: Binding affinity to recombinant human Matriptase using Boc-QAR-AMC as substrate assessed as inhibition constant by fluorescence based analysis
pKi: −log10 of the molar value.
The reader will find reported pKi values listed item by item below.
value type: pKi

• N=C(N)NCCC[C@H](NC(=O)[C@@H](NC(=O)[C@H](Cc1cscn1)NC(=O)CCc1ccccc1)C1CCCCC1)C(=O)c1nc2ccccc2s1 = 7.00
• N=C(N)NCCC[C@H](NC(=O)[C@H](Cc1ccc(OCc2ccccc2)cc1)NC(=O)[C@H](Cc1cscn1)NC(=O)CCc1ccccc1)C(=O)c1nc2ccccc2s1 = 7.57
• CC(C)C[C@H](NC(=O)[C@H](Cc1cscn1)NC(=O)CCc1ccccc1)C(=O)N[C@@H](CCCNC(=N)N)C(=O)c1nc2ccccc2s1 = 8.30
• N=C(N)NCCC[C@H](NC(=O)[C@H](Cc1cccc2ccccc12)NC(=O)[C@H](Cc1cscn1)NC(=O)CCc1ccccc1)C(=O)c1nc2ccccc2s1 = 7.34
• N=C(N)NCCC[C@H](NC(=O)[C@@H](NC(=O)[C@H](Cc1cscn1)NC(=O)CCc1ccccc1)c1ccccc1)C(=O)c1nc2ccccc2s1 = 7.47
• N=C(N)NCCC[C@H](NC(=O)[C@H](Cc1ccccc1)NC(=O)[C@H](Cc1cscn1)NC(=O)CCc1ccccc1)C(=O)c1nc2ccccc2s1 = 8.39
• CC(C)(C)C[C@H](NC(=O)[C@H](Cc1cscn1)NC(=O)CCc1ccccc1)C(=O)N[C@@H](CCCNC(=N)N)C(=O)c1nc2ccccc2s1 = 7.29
• N=C(N)NCCC[C@H](NC(=O)[C@H](CCC1CCCCC1)NC(=O)[C@H](Cc1cscn1)NC(=O)CCc1ccccc1)C(=O)c1nc2ccccc2s1 = 7.91
• CC[C@H](C)[C@H](NC(=O)[C@H](Cc1cscn1)NC(=O)CCc1ccccc1)C(=O)N[C@@H](CCCNC(=N)N)C(=O)c1nc2ccccc2s1 = 7.95
• CC(C)[C@H](NC(=O)[C@H](Cc1cscn1)NC(=O)CCc1ccccc1)C(=O)N[C@@H](CCCNC(=N)N)C(=O)c1nc2ccccc2s1 = 8.07
• N=C(N)NCCC[C@H](NC(=O)[C@H](Cc1ccc2ccccc2c1)NC(=O)[C@H](Cc1cscn1)NC(=O)CCc1ccccc1)C(=O)c1nc2ccccc2s1 = 7.28

Reference for the values: ChEMBL document CHEMBL5550199
